Test system: bladder cancer cell line RT112
measurement_description: inhibition of proliferation of cancer cells
Assay type: cell-based
measurement_context: Homo sapiens, RT-112, read-out: Ability of inhibiting proliferation of RT112 (GI50)
Protocol: The ability of the compound of the present invention of inhibiting the proliferation of the bladder cancer cell line RT112 was determined as the GI50 value.
Below: a set of entries, each annotated with reported GI50.

{"columns": ["chem_smiles", "GI50"],
 "data": [
  ["COc1cc(N2CCN(C)CC2)ccc1Nc1cc(-n2c(Nc3c(Cl)c(OC)cc(OC)c3Cl)nc3ccccc32)ncn1", "< 1000 nM"],
  ["COc1cc(OC)c(Cl)c(Nc2nc3ccccc3n2-c2cc(N)ncn2)c1Cl", "< 1000 nM"],
  ["COc1cc(OC)c(Cl)c(Nc2nc3ccccc3n2-c2cc(Nc3ccc(CN4CCN(CC5CCCCC5)CC4)cc3)ncn2)c1Cl", "< 10000 nM"],
  ["COc1cc(OC)c(Cl)c(Nc2nc3ccccc3n2-c2cc(Nc3ncccn3)ncn2)c1Cl", "< 1000 nM"],
  ["COc1cc(OC)c(Cl)c(Nc2nc3ccccc3n2-c2cc(Nc3ccccc3)ncn2)c1Cl", "< 1000 nM"],
  ["CNc1cc(-n2c(Nc3c(Cl)c(OC)cc(OC)c3Cl)nc3ccccc32)ncn1", "< 1000 nM"],
  ["CCN1CCN(c2ccc(Nc3cc(-n4c(Nc5c(Cl)c(OC)cc(OC)c5Cl)nc5ccccc54)ncn3)cc2)CC1", "< 1000 nM"],
  ["COc1cc(OC)c(Cl)c(Nc2nc3ccccc3n2-c2cc(Nc3ccc(N4CCOCC4)cc3)ncn2)c1Cl", "< 1000 nM"],
  ["COc1cc(N2CCOCC2)ccc1Nc1cc(-n2c(Nc3c(Cl)c(OC)cc(OC)c3Cl)nc3ccccc32)ncn1", "< 1000 nM"],
  ["COc1cc(OC)c(Cl)c(Nc2nc3ccccc3n2-c2cc(Nc3ccc(N4CCC(N5CCCCC5)CC4)c(C(F)(F)F)c3)ncn2)c1Cl", "< 10000 nM"]
]}

###

measurement_description: in-vivo PK profile, rat PK
measurement_context: in vivo; Sprague-Dawley rat, IV 5 mg/kg
Excerpt: The in-vivo PK profile (mouse PK/ICR mice and rat PK/Sprague-Dawley rat) of N-(2,6-dichloro-3,5-dimethoxyphenyl)-1-(6-((4-(4-ethylpiperazin-1-yl)phenyl)amino)pyrimidin-4-yl)-1H-benz[d]imidazol-2-amine synthesized in Example 1 is as follows.

{"columns": ["chem_smiles", "result_units", "half-life"],
 "data": [
  ["CCN1CCN(c2ccc(Nc3cc(-n4c(Nc5c(Cl)c(OC)cc(OC)c5Cl)nc5ccccc54)ncn3)cc2)CC1", "h", 5.75]
]}
